- System: O5AK2 M92I
- Sequence (as listed by the source, stated change not applied): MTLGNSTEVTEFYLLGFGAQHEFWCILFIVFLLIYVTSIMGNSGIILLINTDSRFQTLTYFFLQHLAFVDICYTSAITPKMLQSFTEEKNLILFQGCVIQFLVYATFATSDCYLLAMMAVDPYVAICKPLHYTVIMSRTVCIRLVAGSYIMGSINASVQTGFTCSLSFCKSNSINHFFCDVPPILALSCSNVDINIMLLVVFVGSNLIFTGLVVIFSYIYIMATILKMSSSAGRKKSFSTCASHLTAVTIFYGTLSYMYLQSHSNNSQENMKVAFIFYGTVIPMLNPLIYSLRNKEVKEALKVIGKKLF
- study.conditions: stereoisomer not certain
value.type: odorant receptor agonist call

Some solved cases for reference:
compound	tested.system	value.type	experimental.result
CCC1OC(C)=C(O)C1=O (stereo not given)	O5AK2 M92I	odorant receptor agonist call	inactive
CC1=C(O)C(=O)OC1C (stereo not given)	O5AK2 M92I	odorant receptor agonist call	inactive
Cc1cnc(C)c(C)n1	O5AK2 M92I	odorant receptor agonist call	inactive
CCC1OC(=O)C(O)=C1C (stereo not given)	O5AK2 M92I	odorant receptor agonist call	inactive

Please look at the following compound next.
Task item: Tell me reported odorant receptor agonist call for CCCC(S)CCOC(C)=O (stereo not given) , tested with O5AK2 M92I.
Reply: inactive

###

- Test system: OR6S1 T42I V156I
- Sequence (whole entry): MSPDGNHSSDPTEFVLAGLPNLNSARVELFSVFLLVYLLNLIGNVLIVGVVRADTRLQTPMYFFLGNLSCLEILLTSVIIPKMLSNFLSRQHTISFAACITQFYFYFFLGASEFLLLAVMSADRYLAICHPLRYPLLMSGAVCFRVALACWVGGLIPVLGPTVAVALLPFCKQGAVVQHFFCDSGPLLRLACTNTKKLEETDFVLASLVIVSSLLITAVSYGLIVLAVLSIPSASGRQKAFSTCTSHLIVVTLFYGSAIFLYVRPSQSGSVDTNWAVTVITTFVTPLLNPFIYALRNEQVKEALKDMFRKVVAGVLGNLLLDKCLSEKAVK
- study.conditions: stereoisomer not certain

compound	odorant receptor agonist call
CC1=NC(C)C(C)S1 (centres undefined)	inactive
Cc1cnc(C)c(C)n1	inactive
CC1=C(O)C(=O)C(C)O1 (centres undefined)	inactive
CC1=C(O)C(=O)OC1C (centres undefined)	inactive

###

- tested.system: OR9G9 (Homo sapiens) (UniProt P0C7N8)
- Sequence (whole entry): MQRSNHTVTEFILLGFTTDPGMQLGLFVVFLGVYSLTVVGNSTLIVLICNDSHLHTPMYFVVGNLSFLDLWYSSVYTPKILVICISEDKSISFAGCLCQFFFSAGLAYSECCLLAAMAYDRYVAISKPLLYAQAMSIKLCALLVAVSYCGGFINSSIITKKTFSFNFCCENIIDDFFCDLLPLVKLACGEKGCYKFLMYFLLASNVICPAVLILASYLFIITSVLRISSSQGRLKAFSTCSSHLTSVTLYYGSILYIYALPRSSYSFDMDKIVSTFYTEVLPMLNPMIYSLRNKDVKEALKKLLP
- study.conditions: stereoisomer not certain
value.type: odorant receptor agonist call

Here are 5 molecules together with their reported answers.
molecule	experimental.result
CCC(S)C(C)CO (stereo unspecified)	inactive
CC1CCCCCCCCCCCCC(=O)C1 (stereo unspecified)	inactive
CC(CO)CS (stereo unspecified)	inactive
CCCCCCC=CCCC=O	inactive
CCCCC(S)C(C)CO (stereo unspecified)	inactive

Now examine the next entry.
Task item: Given CC(=O)c1c(C)c([N+](=O)[O-])c(C(C)(C)C)c([N+](=O)[O-])c1C , state its recorded odorant receptor agonist call.
Reply: inactive

###

- tested.system: OR10S1 (Homo sapiens)
- study.conditions: stereoisomer not certain
Parameter call: string, one of active, inactive

compound	tested.system	discrete.label
CCCCCCC=CCCC=O	OR10S1 (Homo sapiens)	inactive
CC(=O)O	OR10S1 (Homo sapiens)	inactive
CCCCCC(=O)C(C)C(C)=O (centres undefined)	OR10S1 (Homo sapiens)	inactive
CCCC(S)CCOC(C)=O (centres undefined)	OR10S1 (Homo sapiens)	inactive

Task item: Any idea what this test logged for CCCCC(S)C(C)CO (centres undefined) ?
Reply: inactive

Task item: What was the test verdict on CC(C)=CCCC(C)=CCO ?
Reply: active

Task item: Per the assay record, what outcome was assigned to Cc1ccc(C(C)C)cc1 ?
Reply: inactive

Task item: Status in this test for CCCCCCCC(=O)OC ?
Reply: inactive

Task item: Called result for O=c1ccc2ccccc2o1
Reply: inactive
